# Test system: EKVX NSCLC
# runDescription: NCI-60 one-dose screen, 48 h (100 = growth as untreated, 0 = no growth, -100 = all killed)
# reportedConditions: 10 µM
This is part of a sample that, as a whole, favours compounds with a hit. Of some 83,000 tested, about 20% had one in any assay.
measurementName: growth (%)
Value expressed in %; do not type the unit.

The cases that follow already have their growth on record.
C=CC[Se]C(=O)c1cncc(C(=O)[Se]CC=C)c1 ... -97.9
C#CC[Se]C(=O)c1ccc(C(=O)[Se]CC#C)s1 ... 48.4
CC(C)N=C([Se])NC(=O)c1cccs1 ... 14.7
C#CC[Se]C(=O)c1ccc2n[se]nc2c1 ... 13.8
CC[C@]12C=CCN3CC[C@@]4(c5ccc(OC)cc5N(C)[C@H]4[C@@](O)(C(=O)OC)[C@@H]1OC(=O)CCCC[P+](C1CCCCC1)(C1CCCCC1)C1CCCCC1)[C@@H]32 ... 13.2

Reported growth, compound O=C(/C=C/c1ccc(Br)cc1)c1nc2ccccc2n1Cc1ccc(Br)cc1 : ____
1.19

Reported growth, compound COc1cc(OC)c(S(=O)(=O)N(CCCl)CCCl)cc1C(=O)/C=C/c1ccc(C)cc1 : ____
89.5

Reported growth, compound CC(C)N=C([Se])NC(=O)c1ccccc1 : ____
-56.8

Reported growth, compound O=C(/C=C/c1ccccc1Cl)c1nc2ccccc2n1Cc1ccc(F)cc1 : ____
-91.6

Reported growth, compound CC(=C\C(=O)Oc1ccc2c3c1OC1C(O)CCC4(O)C(C2)N(CC2CCC2)CCC314)/C=C1\CCCc2ccccc21 (stereo not given) : ____
49.7
